Values from the supplement of paper PMC9732359

Method description: protein stability index of a GFP-peptide fusion (yeast GPS) (PSI 1-4); higher = more stable; sorted into four equal gates, so the index is relative within each strain
Measurement conditions: doa10∆
Recorded endpoint: protein stability index
Form rule: numeric answer, no unit written next to it.

> print(dat)
                sequence.text        recorded.endpoint  observed.value
1  ILKKSLMTSHTKGDTSK [RTT102]  protein stability index             2.6

Next sequence, please.
Task item: Supply reported protein stability index belonging to this sequence: TGLNGSGKSNILDAICF [SMC2]
Reply: 3.4

---

Method description: protein stability index of a GFP-peptide fusion (yeast GPS) (PSI 1-4); higher = more stable; sorted into four equal gates, so the index is relative within each strain
Measurement conditions: san1∆
Could you label it rule met if measured protein stability index is 3 or higher, and rule not met otherwise?

Solved entries:
> print(dat)
                         sequence.text  assigned.label
 1            ESESERKYDLFQNLELE [SMC2]        rule met
 2   PASNILRRTTQRVFDET [YDL116W/NUP84]    rule not met
 3  LLQKMLNLLNYQELFIQ [YML103C/NUP188]    rule not met
 4            KFEPLYPREEEEDYNEF [PRP8]        rule met
 5            GELLHHPIMETIVNDSN [RPN9]    rule not met
 6           GSESDDSEGSIKQTSDE [ECM29]        rule met
 7   VVNSNFAKEHNATVNLA [YJR042W/NUP85]    rule not met
 8            LDNFQKSVEKTMIKKTT [SMC3]    rule not met
 9            ELEQLVEFNRKVVIPNL [RPN3]        rule met
10            YIDEMYNHNDGGDGRDY [RRI1]        rule met

Task item: Determine whether measured protein stability index meets or exceeds 3 for KKCPFTGLVSIRGKILT [RPS11A]
Reply: rule not met

Task item: Reported protein stability index reaches at least 3 for VSNENKKNIDYQNRSTR [RRI1] ?
Reply: rule met

---

protein stability index listing for selected sequences.
Method description: protein stability index of a GFP-peptide fusion (yeast GPS) (PSI 1-4); higher = more stable; sorted into four equal gates, so the index is relative within each strain
Measurement conditions: san1∆
Please reply with the value in numeric form only.

> print(dat)
                      sequence.text  observed.value
1          SYVETLDSMIELFKDYK [MED1]            3.34
2          HADKDTFSSSISTYIST [POP8]            2.41
3  NVGLPILKSLKNRSNRK [YOR098C/NUP1]            2.88
4        TAFKSSPFGGSSHAKGI [RPS23A]            3.02

Task item: Give the reported value of protein stability index for this record: TGLNGSGKSNILDAICF [SMC2]
Reply: 3.28

Task item: Assign protein stability index to the following record: RRIPKRMRNRALREMRK [POP1]
Reply: 3.34

Task item: Quote protein stability index reported for RRTNTPIGRDGKLAKPR [RPB2] please.
Reply: 2.76

---

Method description: protein stability index of a GFP-peptide fusion (yeast GPS) (PSI 1-4); higher = more stable; sorted into four equal gates, so the index is relative within each strain
Measurement conditions: doa10∆
Measured protein stability index accompanies every entry in the list below.
Please respond with just the number, no unit label.

> print(dat)
              sequence.text        recorded.endpoint  observed.value
1  IKVLLRQNRRPELGDKF [RET1]  protein stability index            3.15

Task item: Please report the measured protein stability index for MKLVPSIPPATIETFNE [RPB5]
Reply: 2.41

Task item: Supply recorded protein stability index for LQKALTVKTNDELMVIY [RPN8] here.
Reply: 2.33

Task item: Give protein stability index for the following sequence: PVRPVRVRHEDVETVKR [RPC53]
Reply: 2.9

Task item: Report protein stability index for GFSFGSQLGGNKTVNEA [YJL041W/NSP1]
Reply: 3.18

Task item: Give the measured protein stability index for MAKVHGSLARAGKVKSQ [RPS30A]
Reply: 2.38

Task item: Quote protein stability index reported for MFLTRSEYDRGVSTFSP [PUP2] please.
Reply: 3.58

Task item: Indicate its recorded protein stability index; the sequence in question is LREHFKNTEEGKALVHH [QCR6]
Reply: 2.87

Task item: Respond only with protein stability index recorded for TINEMMKHLGRSEGNPV [FAS2]
Reply: 2.5

Task item: Report protein stability index for KAKVDDLVLGKPLADLR [YLR335W/NUP2]
Reply: 3.23

Task item: Using the record for FMTKLLEVANDLQLLYV [IRR1] , state its measured protein stability index.
Reply: 1.72

Task item: Respond only with protein stability index recorded for KSLLLNTLNIDNTARVI [BRN1]
Reply: 2.71

Task item: Supply protein stability index value. Item: MKMDKSPTESYSDIGGL [RPT2]
Reply: 3.21

Task item: Provide only the value of recorded protein stability index for ECPLDPGGYFIVNGTEK [RET1]
Reply: 3.18

---

Method description: protein stability index of a GFP-peptide fusion (yeast GPS) (PSI 1-4); higher = more stable; sorted into four equal gates, so the index is relative within each strain
Measurement conditions: san1∆
Recorded endpoint: protein stability index
Hey, just send me the number, nothing else.

The cases that follow already have their protein stability index on record.
> print(dat)
               sequence.text  observed.value
1   TKHLMPQDLTFNAGSNP [RPB7]            3.22
2   KELQYDNEQNLESDFVT [PRE2]            2.91
3  LLTKNVSCYRPRRDGER [RPS6A]            3.19

Task item: For GHSLGEYAALASLADVM [FAS1] , write its protein stability index.
Reply: 1.92

Task item: For the sequence ESDNYRLLPNGSNKAQI [YML031W/NDC1] , give its reported protein stability index.
Reply: 2.78

Task item: Indicate the recorded protein stability index value for this sequence: STRKTPNGEGSKTWETY [RPS20]
Reply: 3.07

Task item: State, in one line, measured protein stability index of KNKYLKDVLAQTSVTTN [SWP82]
Reply: 2.71

Task item: State its protein stability index: QLAQIRQFLKANKTNLI [YML103C/NUP188]
Reply: 2.86

---

Method description: protein stability index of a GFP-peptide fusion (yeast GPS) (PSI 1-4); higher = more stable; sorted into four equal gates, so the index is relative within each strain
Measurement conditions: pdr5∆
Item-by-item account of protein stability index

See these solved cases before continuing.
> print(dat)
                       sequence.text  observed.value
1          GDLKLQVLLDEEYKQLV [RPO21]            2.94
2           QDKEKIDNLKDTLKENA [ITC1]            3.07
3           DLALKMGVPIYGIVAMA [FAS2]            1.17
4           LTFQPQQQTNALNGIDI [GRR1]            3.07
5           QGIIYAKVNRPAKIVNF [RPN5]            2.72
6  GIFEKAKAKAVTSKVRN [YMR153W/NUP53]            2.59

Let's switch to this sequence now.
Task item: Using the record for NRGNKKRHRSSYYDNDL [YML031W/NDC1] , state its measured protein stability index.
Reply: 3.29

---

protein stability index for assorted sequences
Method description: protein stability index of a GFP-peptide fusion (yeast GPS) (PSI 1-4); higher = more stable; sorted into four equal gates, so the index is relative within each strain
Measurement conditions: san1∆
Simply state the number, no unit and no words.

# example entries with known answers
> print(dat)
              sequence.text  observed.value
1  KDPVDFVRQAAMIALSM [RPN2]            1.81
2  LLDAYSHIESDSTSHNN [MED1]             2.6
3  TFEKHDRVEDICERIFE [RRI2]            3.15

Task item: Look up and state reported protein stability index for EQTVEYMVSRAIRDGVI [RPN3]
Reply: 2.64

Task item: Kindly indicate its recorded protein stability index. Item: IFKGIGGNFKDLSTLVH [GAL11]
Reply: 1.83

Task item: Retrieve protein stability index measured for GGSFGNREEFINKLVKS [RPL7A] and print it.
Reply: 3.18

Task item: Given QTGIFVYQNNITPSAMK [RPB5] , respond with its protein stability index.
Reply: 3.11

Task item: Answer with reported protein stability index of SLEGCVEMAWIMGFISY [FAS2]
Reply: 2.35
